experiment: Volume of distribution at steady state in Sprague-Dawley rat at 1 mg/kg, iv; assay type: ADME, organism-based; conditions: in vivo, read-out: Vdss
measured.endpoint: Vd (L/kg)
Give bare numbers, in L/kg.

CC1(COc2cc(F)c(C(=O)NS(=O)(=O)C3CC3)cc2C2CC2)CCC2(CC1)CC2 : 0.88

The reported Vd of the molecule CC1(COc2cc(F)c(C(=O)NS(=O)(=O)C3CC3)cc2C2CC2)CCC(F)(F)CC1 was 0.29

---

assay: Volume of distribution at steady state in FVB mouse at 1 mg/kg, iv; assay type: ADME, organism-based; conditions: FVB, in vivo, read-out: Vdss
measured.endpoint: Vd (L/kg)
Numbers only, in L/kg.

The reported Vd of the compound CC1(COc2cc(F)c(C(=O)NS(=O)(=O)C3CC3)cc2C2CC2)CCC(F)(F)CC1 was 0.28

---

tested on: MDR1; assay: Efflux ratio of apparent permeability across basolateral to apical side over apical to basolateral side in MDCK1 cells expressing MDR1; format: ADME, cell-based, Canis lupus familiaris; settings: dog, MDCK-MDR1
measured.endpoint: efflux ratio
Answers are plain numbers.

The reported efflux ratio of the compound CC1(COc2cc(F)c(C(=O)NS(=O)(=O)C3CC3)cc2C2CC2)CCC2(CC1)CC2 was 1.2

---

test: Protein binding in rat plasma; type: ADME, cell-free; conditions: read-out: PPB (converted)
measured.endpoint: fraction unbound
One number for each entry.

CC1(COc2cc(F)c(C(=O)NS(=O)(=O)C3CC3)cc2C2CC2)CCC(F)(F)CC1 : 0.002

Proceed to the following item.
The reported fraction unbound of the molecule CC1(COc2cc(F)c(C(=O)NS(=O)(=O)C3CC3)cc2C2CC2)CCC2(CC1)CC2 was 0.001

---

test: Lipophilicity, logD of the compound at pH 7.4; assay type: physicochemical; conditions: buffer, read-out: logD
Give measured logD for each item. Keep answers brief.
Numbers only.

Please report logD for every entry that follows.
1. CS(=O)(=O)NC(=O)c1cc(Cl)c(OCC2CCOCC2)cc1F
2. CS(=O)(=O)NC(=O)c1cc(Cl)c(OCC2CCCC2)cc1F
3. CC1(COc2cc(F)c(C(=O)NS(=O)(=O)C3CC3)cc2C2CC2)CCC2(CC1)CC2
4. CS(=O)(=O)NC(=O)c1cc(Cl)c(OCCC2CCCCC2)cc1F
5. CS(=O)(=O)NC(=O)c1cc(Cl)c(OCC2CCCCC2)cc1F
6. CC1(COc2cc(F)c(C(=O)NS(=O)(=O)C3CC3)cc2C2CC2)CCC(F)(F)CC1
7. CS(=O)(=O)NC(=O)c1cc(Cl)c(OC2CCCCC2)cc1F

1. 0.21
2. 1.1
3. 2.1
4. 1.5
5. 1.4
6. 1.4
7. 1.3

The reported logD of the compound CS(=O)(=O)NC(=O)c1cc(Cl)c(OCCC2CC2)cc1F was 0.4

---

assay: Volume of distribution at steady state in mouse at 1 mg/kg, iv; assay type: ADME, organism-based; details: in vivo, read-out: Vdss
measured.endpoint: Vd (L/kg)
Give bare numbers, in L/kg.

The reported Vd of the compound CS(=O)(=O)NC(=O)c1cc(Cl)c(OCC23CC4CC(CC(C4)C2)C3)cc1F was 1.2

---

Give measured fraction unbound for each item. Keep answers brief.
assay: Protein binding in mouse plasma; assay type: ADME, cell-free; conditions: read-out: PPB (converted)
Numbers only.

CC1(COc2cc(F)c(C(=O)NS(=O)(=O)C3CC3)cc2C2CC2)CCC2(CC1)CC2 : 0.001

Proceed to the following item.
The reported fraction unbound of the molecule CC1(COc2cc(F)c(C(=O)NS(=O)(=O)C3CC3)cc2C2CC2)CCC(F)(F)CC1 was 0.002
